Recorded values, source ChEMBL document CHEMBL1154516.

ASSAY_DETAILS: physchem
EXPERIMENTAL_PARAMETERS: octanol/water
TEST_READOUT: logP

COc1ccc(-n2nc(C(N)=O)c3c2C(=O)N(c2ccc(C4(CN5CCOCC5)CC4)cc2)CC3)cc1 = 3.3
COc1ccc(-n2nc(C(F)(F)F)c3c2C(=O)N(c2ccc(C4(CN(C)C)CC4)cc2)CC3)cc1 = 3.4
COc1ccc(-n2nc(C(F)(F)F)c3c2C(=O)N(c2ccc(C4(CN5CCCC5)CC4)cc2)CC3)cc1 = 3.4
COc1ccc(-n2nc(C#N)c3c2C(=O)N(c2ccc(C4(CN5CCOCC5)CC4)cc2)CC3)cc1 = 4
COc1ccc(-n2nc(C#N)c3c2C(=O)N(c2ccc(C4(CN(C)C)CC4)cc2)CC3)cc1.O=C(O)C(F)(F)F = 2.5
CNCC1(c2ccc(N3CCc4c(C(F)(F)F)nn(-c5ccc(OC)cc5)c4C3=O)cc2)CC1 = 3.2
